# System: B. fragilis NCTC 9344
# assayProtocol: anti-anaerobic activity, MIC/MBC in 96 well microtitre plates, strain C
# Assay type: cell-based, Bacteroides fragilis
# condition: Bacteroides fragilis, NCTC9344, 48 h, strain C; 48 hours at 37° C., anaerobic chamber; 10^5 cells/ml; read-out: MIC (Minimum Inhibitory Concentration)
measuredEndpoint: MIC (µg/mL)
Your answer is read as µg/mL, so omit the unit and give the number.

INSERT INTO measurements (molecule, obsvalue) VALUES
  ('C[C@H](NC(=O)[C@@H](N)Cc1cn(CC(Cl)(C(=O)c2ccc(Cl)cc2Cl)c2ccccc2)cn1)C(=O)O (some centres unmarked)', 3.1);

Let us move to another entry and its MIC.
input: Note down MIC recorded for C[C@H](NC(=O)[C@H](Cc1cn(CC(Cl)(C(=O)c2ccc(Cl)cc2Cl)c2ccccc2)cn1)NC(=O)OC(C)(C)C)C(=O)OC(C)(C)C (some centres unmarked)
output: 6.2
